assay details: Fluorescence ANTS/DPX vesicle leakage assay in POPE/POPG/TOCL (72:23:5)
details: Table S12 series (MSI-to-PGLa mutants), POPE/POPG/TOCL (72:23:5) 100 nm vesicles, P/L ≈ 1:30, mixtures 1:1, 10 mM HEPES pH 7.5, 155 mM NaCl, 30 °C, 600 s, % of Triton-X-100 leakage, mean of n = 3
No end group written: not given here.
Outcome label depends on Leakage, mean value relative to 3%: at/above gives 1, below gives -1.

Prompt: Record KIAGKAAKIAGKIAKIAGKIA-NH2 [MtP-I6A, MSI-103 to PGLa single mutant I6A] ; criterion: Leakage, mean value no lower than 3%. Met?
Response: 1

Prompt: Record KIAGKIGKIAGKIAKIAGKIA-NH2 [MtP-A7G, MSI-103 to PGLa single mutant A7G] ; criterion: Leakage, mean value no lower than 3%. Met?
Response: 1

Prompt: Record KIAGKIAAIAGKIAKIAGKIA-NH2 [MtP-K8A, MSI-103 to PGLa single mutant K8A] ; criterion: Leakage, mean value no lower than 3%. Met?
Response: -1

Prompt: Record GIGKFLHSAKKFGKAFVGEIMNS-OH [MAG2-WT, magainin 2, wild type antimicrobial peptide from Xenopus laevis skin, reference compound] ; criterion: Leakage, mean value no lower than 3%. Met?
Response: -1

***
Prompt: Record KIAGKAGAIAGKIAKIALKIA-NH2 (also: 15N-labeled Ala10) [MtP-a4, MSI-103 mutant with MtP-A3 mutations plus G18L] ; criterion: Leakage, mean value no lower than 3%. Met?
Response: -1

Prompt: Record KIAGKAGAIAGKIAKIAGKIA-NH2 [MtP-a3, MSI-103 triple mutant I6A, A7G, K8A] ; criterion: Leakage, mean value no lower than 3%. Met?
Response: -1

Prompt: Record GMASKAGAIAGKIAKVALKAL-NH2 [PGLa-WT, PGLa wild type antimicrobial peptide from Xenopus laevis skin, 15N-labeled at Ala10, reference compound] ; criterion: Leakage, mean value no lower than 3%. Met?
Response: -1
